Quick record: IC50, UniProt:O42275.
Sequence (O42275 24-633): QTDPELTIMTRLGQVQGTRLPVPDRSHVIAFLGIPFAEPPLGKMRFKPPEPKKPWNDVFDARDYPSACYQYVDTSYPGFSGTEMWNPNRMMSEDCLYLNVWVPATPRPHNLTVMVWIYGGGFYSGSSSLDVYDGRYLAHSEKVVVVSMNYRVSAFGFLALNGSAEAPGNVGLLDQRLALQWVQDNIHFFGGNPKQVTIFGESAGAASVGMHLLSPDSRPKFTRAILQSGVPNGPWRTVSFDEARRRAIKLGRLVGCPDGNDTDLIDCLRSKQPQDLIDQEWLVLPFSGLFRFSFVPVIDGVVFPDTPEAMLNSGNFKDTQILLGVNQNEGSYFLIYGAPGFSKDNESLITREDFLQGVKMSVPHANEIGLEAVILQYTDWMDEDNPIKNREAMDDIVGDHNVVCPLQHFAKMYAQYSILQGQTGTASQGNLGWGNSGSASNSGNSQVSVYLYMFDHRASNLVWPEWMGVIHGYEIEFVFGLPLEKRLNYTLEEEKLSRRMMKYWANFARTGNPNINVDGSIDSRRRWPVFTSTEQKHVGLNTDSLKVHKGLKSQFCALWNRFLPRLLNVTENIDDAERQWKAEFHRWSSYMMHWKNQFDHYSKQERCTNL

{"molecular_string": "CCSc1nc2ccccc2n1Cc1nnc(-c2ccccc2O)o1", "IC50 [µM]": 248}
{"molecular_string": "CCSc1nc2ccccc2n1Cc1nnc(-c2ccc(OC)cc2)o1", "IC50 [µM]": 380}
{"molecular_string": "CCOc1cccc(-c2nnc(Cn3c(SCC)nc4ccccc43)o2)c1O", "IC50 [µM]": 224}
{"molecular_string": "CCSc1nc2ccccc2n1Cc1nnc(-c2ccco2)o1", "IC50 [µM]": 69.7}
{"molecular_string": "CCSc1nc2ccccc2n1Cc1nnc(-c2cccc(O)c2O)o1", "IC50 [µM]": 321}
{"molecular_string": "CCSc1nc2ccccc2n1Cc1nnc(-c2ccc([N+](=O)[O-])cc2)o1", "IC50 [µM]": 751}
{"molecular_string": "CCSc1nc2ccccc2n1Cc1nnc(-c2ccc(O)cc2)o1", "IC50 [µM]": 93.2}
{"molecular_string": "CCSc1nc2ccccc2n1Cc1nnc(-c2ccc(N(CC)CC)cc2)o1", "IC50 [µM]": 258}
{"molecular_string": "CCSc1nc2ccccc2n1Cc1nnc(-c2cccc(O)c2)o1", "IC50 [µM]": 401}
